# studySystem: D2 (Homo sapiens)
# Sequence (P14416 whole entry): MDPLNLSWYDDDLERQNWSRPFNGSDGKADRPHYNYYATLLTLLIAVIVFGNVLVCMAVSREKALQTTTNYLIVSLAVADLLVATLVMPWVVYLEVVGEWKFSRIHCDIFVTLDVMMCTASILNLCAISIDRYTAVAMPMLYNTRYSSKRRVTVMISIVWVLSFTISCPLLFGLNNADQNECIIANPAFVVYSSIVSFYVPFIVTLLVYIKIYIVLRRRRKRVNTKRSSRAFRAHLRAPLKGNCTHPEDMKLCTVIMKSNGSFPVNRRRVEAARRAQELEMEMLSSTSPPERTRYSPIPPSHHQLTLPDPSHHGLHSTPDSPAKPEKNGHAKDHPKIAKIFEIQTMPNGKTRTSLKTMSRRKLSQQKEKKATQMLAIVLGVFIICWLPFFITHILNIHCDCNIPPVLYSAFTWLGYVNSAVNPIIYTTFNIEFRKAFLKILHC
# measurementProtocol: Competitive radioligand binding
quantityName: Ki

Please tell me: Ki of CCCC(=O)n1cc2c3c(cccc31)C1=C[C@@H](C(=O)N(CC)CC)CN(C)[C@@H]1C2 [1B-LSD, 1-butanoyl-D-lysergic acid diethylamide] , system D2 (Homo sapiens)?
> 10 µM

###

# studySystem: β1 (Homo sapiens, UniProt P08588)
# measurementProtocol: Competitive radioligand binding
# Parameters: species or system Human (heart)
quantityName: Ki

Dear colleague, I am looking for the recorded Ki of the following molecule: CCCC(=O)n1cc2c3c(cccc31)C1=C[C@@H](C(=O)N(CC)CC)CN(C)[C@@H]1C2 [1B-LSD, 1-butanoyl-D-lysergic acid diethylamide]
> 10 µM

###

# studySystem: 5-HT1B (Homo sapiens, UniProt P28222)
# Sequence (P28222 whole entry): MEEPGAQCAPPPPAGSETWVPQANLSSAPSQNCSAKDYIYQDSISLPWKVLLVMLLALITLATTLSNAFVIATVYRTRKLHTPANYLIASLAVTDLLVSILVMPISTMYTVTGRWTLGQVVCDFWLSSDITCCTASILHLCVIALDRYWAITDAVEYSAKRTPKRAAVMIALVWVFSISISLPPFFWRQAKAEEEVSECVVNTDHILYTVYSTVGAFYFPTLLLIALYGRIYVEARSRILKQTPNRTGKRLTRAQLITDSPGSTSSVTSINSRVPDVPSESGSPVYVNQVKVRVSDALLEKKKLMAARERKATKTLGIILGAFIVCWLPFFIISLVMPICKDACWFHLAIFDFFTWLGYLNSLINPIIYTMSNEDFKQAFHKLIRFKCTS
quantityName: Ki (nM)
Quick reminder: number only, in nM, skip the unit.

Dear colleague, I am looking for the recorded Ki of the following compound: CCCC(=O)n1cc2c3c(cccc31)C1=C[C@@H](C(=O)N(CC)CC)CN(C)[C@@H]1C2 [1B-LSD, 1-butanoyl-D-lysergic acid diethylamide]
1460

###

# studySystem: UniProt P21917
# Sequence (P21917 1-419): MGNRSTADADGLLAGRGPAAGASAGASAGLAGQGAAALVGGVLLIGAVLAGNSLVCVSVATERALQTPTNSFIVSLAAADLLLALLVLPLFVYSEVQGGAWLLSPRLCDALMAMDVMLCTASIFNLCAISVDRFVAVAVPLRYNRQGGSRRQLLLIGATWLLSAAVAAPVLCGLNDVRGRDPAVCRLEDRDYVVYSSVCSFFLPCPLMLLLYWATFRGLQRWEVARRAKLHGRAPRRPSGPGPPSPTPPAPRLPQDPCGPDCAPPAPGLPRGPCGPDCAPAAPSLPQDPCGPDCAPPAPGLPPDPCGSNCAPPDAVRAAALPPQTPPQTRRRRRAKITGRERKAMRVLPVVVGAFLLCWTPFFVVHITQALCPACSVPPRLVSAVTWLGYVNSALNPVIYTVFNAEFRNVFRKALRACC
quantityName: Ki (µM)
Quick reminder: number only, in µM, skip the unit.

Please tell me: Ki of CCCC(=O)n1cc2c3c(cccc31)C1=C[C@@H](C(=O)N(CC)CC)CN(C)[C@@H]1C2 [1B-LSD, 1-butanoyl-D-lysergic acid diethylamide] , system UniProt P21917?
2.27

###

# studySystem: 5-HT5a (Homo sapiens, UniProt P47898)
# Sequence (P47898 whole entry): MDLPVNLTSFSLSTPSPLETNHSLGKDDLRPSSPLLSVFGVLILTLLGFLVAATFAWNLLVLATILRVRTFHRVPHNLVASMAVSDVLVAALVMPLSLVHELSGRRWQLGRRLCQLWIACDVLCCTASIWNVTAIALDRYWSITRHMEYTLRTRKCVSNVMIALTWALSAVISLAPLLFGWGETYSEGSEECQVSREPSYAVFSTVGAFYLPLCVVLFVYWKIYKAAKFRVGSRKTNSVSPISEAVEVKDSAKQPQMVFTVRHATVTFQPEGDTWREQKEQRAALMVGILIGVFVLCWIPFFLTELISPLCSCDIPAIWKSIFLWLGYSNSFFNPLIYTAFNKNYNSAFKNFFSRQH
quantityName: pKi
In textbook form, pKi equals minus log to base ten of the concentration in mol/L.

Dear colleague, I am looking for the recorded pKi of the following compound: CCCC(=O)n1cc2c3c(cccc31)C1=C[C@@H](C(=O)N(CC)CC)CN(C)[C@@H]1C2 [1B-LSD, 1-butanoyl-D-lysergic acid diethylamide]
6.80

###

# studySystem: H4 (Homo sapiens, UniProt Q9H3N8)
quantityName: Ki

Please tell me: Ki of CCCC(=O)n1cc2c3c(cccc31)C1=C[C@@H](C(=O)N(CC)CC)CN(C)[C@@H]1C2 [1B-LSD, 1-butanoyl-D-lysergic acid diethylamide] , system H4 (Homo sapiens, UniProt Q9H3N8)?
> 10 µM

###

Form field: pEC50 (one value per entry).
# studySystem: human 5-HT2A (h5-HT2A) (Homo sapiens, UniProt P28223)
# Sequence (P28223 whole entry): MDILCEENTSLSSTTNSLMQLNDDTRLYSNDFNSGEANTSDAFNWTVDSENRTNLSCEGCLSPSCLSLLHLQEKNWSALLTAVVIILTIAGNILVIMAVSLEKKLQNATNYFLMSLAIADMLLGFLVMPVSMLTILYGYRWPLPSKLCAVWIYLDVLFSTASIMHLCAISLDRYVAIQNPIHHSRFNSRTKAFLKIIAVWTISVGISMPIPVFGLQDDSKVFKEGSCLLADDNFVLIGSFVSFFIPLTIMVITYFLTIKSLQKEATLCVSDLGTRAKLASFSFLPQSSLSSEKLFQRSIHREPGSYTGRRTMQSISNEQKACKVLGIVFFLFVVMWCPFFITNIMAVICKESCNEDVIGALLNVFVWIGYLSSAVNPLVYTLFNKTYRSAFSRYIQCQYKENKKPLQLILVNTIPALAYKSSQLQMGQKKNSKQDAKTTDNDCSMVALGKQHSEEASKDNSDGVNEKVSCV
# measurementProtocol: Gq-mediated calcium flux in Flp-In T-REx 293 cells
# Type: cell-based
# experimentalContext: pEC50 ± SEM, Ca^2+ flux
In textbook form, pEC50 equals minus log to base ten of the concentration in mol/L.

- CCC(=O)n1cc2c3c(cccc31)C1=C[C@@H](C(=O)N(CC)CC)CN(C)[C@@H]1C2 [1P-LSD, 1-propanoyl-D-lysergic acid diethylamide]: 7.99

Now look at this one.
Dear colleague, I am looking for the recorded pEC50 of the following molecule: CCN(CC)C(=O)[C@@H]1C=C2c3cccc4c3c(cn4C(C)=O)C[C@H]2N(C)C1 [ALD-52, 1-Acetyl-D-lysergic acid diethylamide]
7.45

###

# studySystem: H1 (Homo sapiens, UniProt P35367)
# Sequence (P35367 whole entry): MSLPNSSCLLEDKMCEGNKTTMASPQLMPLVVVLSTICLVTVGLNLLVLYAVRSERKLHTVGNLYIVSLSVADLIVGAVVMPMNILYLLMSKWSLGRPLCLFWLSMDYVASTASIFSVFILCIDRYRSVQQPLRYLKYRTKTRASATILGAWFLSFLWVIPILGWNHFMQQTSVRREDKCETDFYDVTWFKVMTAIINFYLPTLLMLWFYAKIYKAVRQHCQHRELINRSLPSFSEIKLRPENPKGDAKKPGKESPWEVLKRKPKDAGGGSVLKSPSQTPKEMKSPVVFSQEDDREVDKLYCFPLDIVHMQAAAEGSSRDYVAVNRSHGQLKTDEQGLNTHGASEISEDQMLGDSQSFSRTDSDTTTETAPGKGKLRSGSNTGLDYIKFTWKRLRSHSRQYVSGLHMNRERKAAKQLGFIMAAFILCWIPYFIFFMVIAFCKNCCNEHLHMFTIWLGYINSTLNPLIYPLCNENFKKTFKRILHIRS
# measurementProtocol: Competitive radioligand binding
quantityName: Ki

Please tell me: Ki of CCCC(=O)n1cc2c3c(cccc31)C1=C[C@@H](C(=O)N(CC)CC)CN(C)[C@@H]1C2 [1B-LSD, 1-butanoyl-D-lysergic acid diethylamide] , system H1 (Homo sapiens, UniProt P35367)?
> 10 µM

###

# studySystem: α1D (Homo sapiens, UniProt P25100)
# Sequence (P25100 1-572): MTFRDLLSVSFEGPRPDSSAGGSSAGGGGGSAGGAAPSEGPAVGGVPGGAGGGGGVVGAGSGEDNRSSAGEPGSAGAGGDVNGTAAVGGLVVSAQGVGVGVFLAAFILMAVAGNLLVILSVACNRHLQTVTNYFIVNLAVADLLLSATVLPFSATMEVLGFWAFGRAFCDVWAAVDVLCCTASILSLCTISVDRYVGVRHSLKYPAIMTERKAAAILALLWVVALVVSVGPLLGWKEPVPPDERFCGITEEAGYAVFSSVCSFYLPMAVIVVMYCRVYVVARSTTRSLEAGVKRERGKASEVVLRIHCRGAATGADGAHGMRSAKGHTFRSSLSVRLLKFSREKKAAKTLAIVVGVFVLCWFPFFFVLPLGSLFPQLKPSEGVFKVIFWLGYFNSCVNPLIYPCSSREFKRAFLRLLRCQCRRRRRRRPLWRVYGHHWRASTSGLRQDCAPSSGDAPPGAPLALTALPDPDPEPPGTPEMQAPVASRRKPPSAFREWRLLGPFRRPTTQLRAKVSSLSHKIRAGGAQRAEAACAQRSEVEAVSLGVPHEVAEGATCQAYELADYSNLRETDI
quantityName: Ki

Please tell me: Ki of CCCC(=O)n1cc2c3c(cccc31)C1=C[C@@H](C(=O)N(CC)CC)CN(C)[C@@H]1C2 [1B-LSD, 1-butanoyl-D-lysergic acid diethylamide] , system α1D (Homo sapiens, UniProt P25100)?
> 10 µM

###

# studySystem: D5 (Homo sapiens)
# Sequence (P21918 whole entry): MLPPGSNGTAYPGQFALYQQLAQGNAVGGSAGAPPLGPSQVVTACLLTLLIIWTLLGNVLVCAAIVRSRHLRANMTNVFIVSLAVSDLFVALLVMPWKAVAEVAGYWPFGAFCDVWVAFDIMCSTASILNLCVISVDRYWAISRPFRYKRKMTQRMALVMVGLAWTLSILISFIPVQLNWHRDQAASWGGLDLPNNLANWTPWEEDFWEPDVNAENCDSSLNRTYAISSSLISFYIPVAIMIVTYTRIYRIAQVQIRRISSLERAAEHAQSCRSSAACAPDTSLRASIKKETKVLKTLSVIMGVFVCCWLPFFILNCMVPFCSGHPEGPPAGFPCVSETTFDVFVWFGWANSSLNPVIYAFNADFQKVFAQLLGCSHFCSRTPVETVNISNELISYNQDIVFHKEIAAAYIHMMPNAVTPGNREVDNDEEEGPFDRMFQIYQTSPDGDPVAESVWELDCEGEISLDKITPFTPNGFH
quantityName: Ki

Please tell me: Ki of CCCC(=O)n1cc2c3c(cccc31)C1=C[C@@H](C(=O)N(CC)CC)CN(C)[C@@H]1C2 [1B-LSD, 1-butanoyl-D-lysergic acid diethylamide] , system D5 (Homo sapiens)?
> 10 µM

###

# studySystem: D1 (Homo sapiens)
# Sequence (P21728 whole entry): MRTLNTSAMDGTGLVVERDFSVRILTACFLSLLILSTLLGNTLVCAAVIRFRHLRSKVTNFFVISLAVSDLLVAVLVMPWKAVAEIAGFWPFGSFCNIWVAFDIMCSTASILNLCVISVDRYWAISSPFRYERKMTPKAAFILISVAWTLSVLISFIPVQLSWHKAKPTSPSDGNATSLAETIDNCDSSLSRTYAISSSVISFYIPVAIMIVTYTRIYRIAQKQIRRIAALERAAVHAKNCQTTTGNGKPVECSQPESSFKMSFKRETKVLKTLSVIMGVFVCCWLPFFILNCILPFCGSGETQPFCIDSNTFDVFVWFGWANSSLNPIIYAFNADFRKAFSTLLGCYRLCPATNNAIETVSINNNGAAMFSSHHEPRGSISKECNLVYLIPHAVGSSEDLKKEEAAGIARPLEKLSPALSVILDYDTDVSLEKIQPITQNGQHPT
# measurementProtocol: Competitive radioligand binding
quantityName: Ki (nM)
Quick reminder: number only, in nM, skip the unit.

Dear colleague, I am looking for the recorded Ki of the following compound: CCCC(=O)n1cc2c3c(cccc31)C1=C[C@@H](C(=O)N(CC)CC)CN(C)[C@@H]1C2 [1B-LSD, 1-butanoyl-D-lysergic acid diethylamide]
1170

###

Form field: pKi (one value per entry).
# studySystem: human 5-HT2A receptor (Homo sapiens, UniProt P28223)
# Sequence (P28223 whole entry): as the sequence (P28223 whole entry) above
In textbook form, pKi equals minus log to base ten of the concentration in mol/L.

Past entries and their recorded results:
- CCCC(=O)n1cc2c3c(cccc31)C1=C[C@@H](C(=O)N(CC)CC)CN(C)[C@@H]1C2 [1B-LSD, 1-butanoyl-D-lysergic acid diethylamide]: 7.06
- CCN(CC)C(=O)[C@@H]1C=C2c3cccc4c3c(cn4C(C)=O)C[C@H]2N(C)C1 [ALD-52, 1-Acetyl-D-lysergic acid diethylamide]: 6.76

Now look at this one.
Please tell me: pKi of CCC(=O)n1cc2c3c(cccc31)C1=C[C@@H](C(=O)N(CC)CC)CN(C)[C@@H]1C2 [1P-LSD, 1-propanoyl-D-lysergic acid diethylamide] , system human 5-HT2A receptor (Homo sapiens, UniProt P28223)?
6.71

###

# studySystem: D3 (Homo sapiens, UniProt P35462)
# Sequence (P35462 whole entry): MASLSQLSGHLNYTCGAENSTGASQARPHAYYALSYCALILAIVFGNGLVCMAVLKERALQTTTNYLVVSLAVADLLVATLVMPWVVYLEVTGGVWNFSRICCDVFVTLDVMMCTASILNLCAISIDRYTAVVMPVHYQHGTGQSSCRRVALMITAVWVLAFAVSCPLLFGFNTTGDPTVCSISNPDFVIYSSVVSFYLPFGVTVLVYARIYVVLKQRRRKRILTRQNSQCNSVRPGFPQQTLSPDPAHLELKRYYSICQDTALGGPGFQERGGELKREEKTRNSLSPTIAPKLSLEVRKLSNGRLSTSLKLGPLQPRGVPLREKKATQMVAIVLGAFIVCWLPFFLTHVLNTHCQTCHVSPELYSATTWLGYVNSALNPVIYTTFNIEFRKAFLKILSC
quantityName: pKi
In textbook form, pKi equals minus log to base ten of the concentration in mol/L.

Dear colleague, I am looking for the recorded pKi of the following compound: CCCC(=O)n1cc2c3c(cccc31)C1=C[C@@H](C(=O)N(CC)CC)CN(C)[C@@H]1C2 [1B-LSD, 1-butanoyl-D-lysergic acid diethylamide]
6.45

###

# studySystem: UniProt P13945
# Sequence (P13945 whole entry): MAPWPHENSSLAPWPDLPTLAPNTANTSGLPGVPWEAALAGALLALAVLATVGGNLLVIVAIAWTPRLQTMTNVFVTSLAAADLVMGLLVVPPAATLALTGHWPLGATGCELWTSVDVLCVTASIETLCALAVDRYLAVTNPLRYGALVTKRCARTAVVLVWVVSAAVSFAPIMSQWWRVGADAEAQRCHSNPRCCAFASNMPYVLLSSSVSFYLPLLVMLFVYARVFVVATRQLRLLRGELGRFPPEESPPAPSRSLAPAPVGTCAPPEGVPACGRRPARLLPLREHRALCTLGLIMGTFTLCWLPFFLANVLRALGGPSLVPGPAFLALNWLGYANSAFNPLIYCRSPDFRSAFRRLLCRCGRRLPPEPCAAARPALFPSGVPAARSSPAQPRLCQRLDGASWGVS
pKi: −log10 of the molar value.
quantityName: pKi

Dear colleague, I am looking for the recorded pKi of the following compound: CCCC(=O)n1cc2c3c(cccc31)C1=C[C@@H](C(=O)N(CC)CC)CN(C)[C@@H]1C2 [1B-LSD, 1-butanoyl-D-lysergic acid diethylamide]
< 5.00

###

# studySystem: β2 (Homo sapiens, UniProt P07550)
# Sequence (P07550 whole entry): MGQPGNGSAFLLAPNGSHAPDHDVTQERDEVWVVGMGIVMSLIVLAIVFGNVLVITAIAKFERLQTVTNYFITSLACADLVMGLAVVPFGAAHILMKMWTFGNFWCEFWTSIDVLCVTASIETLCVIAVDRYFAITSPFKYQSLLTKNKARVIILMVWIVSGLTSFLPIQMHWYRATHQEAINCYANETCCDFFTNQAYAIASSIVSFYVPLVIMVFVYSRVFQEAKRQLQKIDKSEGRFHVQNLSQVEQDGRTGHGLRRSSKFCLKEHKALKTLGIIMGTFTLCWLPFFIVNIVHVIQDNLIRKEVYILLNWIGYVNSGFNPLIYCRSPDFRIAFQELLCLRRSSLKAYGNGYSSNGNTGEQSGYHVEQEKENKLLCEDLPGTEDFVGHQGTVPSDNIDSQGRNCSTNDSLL
quantityName: Ki

Please tell me: Ki of CCCC(=O)n1cc2c3c(cccc31)C1=C[C@@H](C(=O)N(CC)CC)CN(C)[C@@H]1C2 [1B-LSD, 1-butanoyl-D-lysergic acid diethylamide] , system β2 (Homo sapiens, UniProt P07550)?
> 10 µM

###

# studySystem: UniProt P18825
# Sequence (P18825 1-462): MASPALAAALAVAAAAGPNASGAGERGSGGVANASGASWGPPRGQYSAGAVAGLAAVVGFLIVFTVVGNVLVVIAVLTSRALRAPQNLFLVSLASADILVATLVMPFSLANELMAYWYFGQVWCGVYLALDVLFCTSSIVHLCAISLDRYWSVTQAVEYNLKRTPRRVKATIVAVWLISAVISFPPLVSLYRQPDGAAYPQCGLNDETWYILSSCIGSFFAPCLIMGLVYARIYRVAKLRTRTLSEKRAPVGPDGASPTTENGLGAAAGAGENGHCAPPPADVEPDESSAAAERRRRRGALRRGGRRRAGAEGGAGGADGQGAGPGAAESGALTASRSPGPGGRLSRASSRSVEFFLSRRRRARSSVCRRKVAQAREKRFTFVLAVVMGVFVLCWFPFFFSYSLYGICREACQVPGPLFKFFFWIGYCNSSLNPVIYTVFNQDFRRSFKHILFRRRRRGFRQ
quantityName: pKi
In textbook form, pKi equals minus log to base ten of the concentration in mol/L.

Dear colleague, I am looking for the recorded pKi of the following compound: CCCC(=O)n1cc2c3c(cccc31)C1=C[C@@H](C(=O)N(CC)CC)CN(C)[C@@H]1C2 [1B-LSD, 1-butanoyl-D-lysergic acid diethylamide]
6.09
